Reference source: PubChem BioAssay (NCI)

Recorded TGI values for a group of molecules are listed next.
System: RPMI-8226 leukemia
Assay: NCI tumour cell line growth inhibition, 48 h
Reply with just the number (in µM).

molecule="N#CC1=C(N)OC(c2cccc([N+](=O)[O-])c2)C1(C#N)C#N (centres undefined)" recorded_number=47

TGI in this record for COC(=O)C1(C)CCCC2(C)c3cc(OC)ccc3C(=O)C(Br)C12 (centres undefined) : 6.53

Record summary for `COC(=O)[C@]12CC[C@@H](C)[C@H](C)[C@@H]1C1=CC[C@@H]3[C@@]4(C)CC(=O)[C@H](O)[C@@](C)(CO)[C@@H]4C(=O)C[C@@]3(C)[C@]1(C)CC2` : reported TGI = 19.4

Reported TGI ( `CC1(C)OC(=O)C(=Cc2ccc([N+](=O)[O-])s2)C(=O)O1` ) = 37.1
